// provenance: PubChem BioAssay AID2717

assay: cancer stem cell viability inhibitors, primary screen, luminescence (AID 2717); conditions: cancer stem cell-like cells viability, at 7.5 µM, hits give high values
The whole screen tested about 300,000 compounds, of which about 3,200 (1.1%) were called active. This is one part of a sample in which actives are shown more often than they occur.
property: inhibition (%)
Record the value in %, omitting the unit from your answer.

response.value for CCCCN(CCCC)CCC(O)c1cc2c(Cl)cc(Cl)cc2c2cc(C(F)(F)F)ccc12 (stereo not given) (field: inhibition) = 95.2

Note to self: inhibition recorded for O=C(CSc1nnc(-c2ccncc2)o1)Nc1cccc(Cl)c1 was 7.36

For record CCOC(=O)[C@H]1[C@H]2COc3ccccc3[C@@H]2N2C(=O)CN(Cc3ccccc3)C(=O)[C@@]12C the listed inhibition is -9.72

So, COC(=O)c1cc2nc(-c3ccccc3)cc(C(F)(F)F)n2n1 ? Its inhibition was -6.63

What the record says about O=C(NCc1ccc2c(c1)OCO2)c1cc([N+](=O)[O-])ccc1N1CCOCC1 : inhibition is 46.4

Record CN(C(=O)c1cccc(NC(=O)Cc2ccc([N+](=O)[O-])cc2)c1)C1CCC1 . Reported inhibition: 1.28

The molecule listed as COc1ccc([C@H]2CC(=O)C=C(c3ccc(CO)cc3)C2)cc1 has a reported inhibition of -11

For record COc1cc(/C=C2\Oc3ccc(C#Cc4ccc(O)cc4)cc3C2=O)cc(OC)c1 the listed inhibition is 115

Lookup result for O=C(NNC(=O)c1ccc(Cl)cc1Cl)c1cccs1 ; measured inhibition: 5.32

Consider CCCCC(=O)Nc1ccc(C(=O)Nc2cc(C(F)(F)F)ccc2Cl)cc1 . Its measured inhibition is 5.17

---

test: cancer stem cell viability inhibitors, primary screen, luminescence (AID 2717); settings: cancer stem cell-like cells viability, at 7.5 µM, hits give high values
About 3,200 (1.1%) of roughly 300,000 compounds were called active. For the sample, actives were picked, then their nearest neighbours and some compounds at random.
property: inhibition (%)
Give the quantity in %, number only.

inhibition reading for O=C(NCCc1ccco1)c1ccc(OCc2cn3ccccc3n2)cc1 : -8.4

# inhibition (compound: CC(=O)Nc1ccc(SC[C@H](Cc2ccccc2)N2CC[C@@H](C)CCC2=O)cc1 ) is 1.36

Entry under test: Cc1c(Cl)c([N+](=O)[O-])nn1CCCC(=O)Nc1cc(Cl)ccc1Cl . Its inhibition was -11.4

Lookup result for O=C1CCC/C=C/C[C@@H](CC(=O)N(CCO)Cc2ccccc2)C(=O)NC[C@H](c2ccccc2)O1 ; measured inhibition: -5.63

Quick note, inhibition for CC1CN(C(=O)c2ccc([N+](=O)[O-])s2)CC(C)O1 (stereo unspecified) landed at 0.926

Entry Nc1nonc1-n1nnc(C(=O)N/N=C/c2ccccc2O)c1CN1CCCC1 ; inhibition = 62

// inhibition value for O=C(COC(=O)c1cccnc1Cl)NC12CC3CC(CC(C3)C1)C2 : -4.72

Noted for Nc1nonc1-n1nnc(C(=O)N/N=C/c2cc(Br)ccc2O)c1CSC1=NCCS1 : its inhibition reads 108

Input Cc1nnsc1C(=O)Nc1cccc(Cl)c1C . Output inhibition: 4.62

Record Cc1cc(Cl)ccc1NNC(=O)c1snnc1C , field inhibition: 75.1

In plain terms, Oc1ccc(/C=N/Nc2nc(-c3ccccc3F)nc3ccccc23)c(O)c1 has a documented inhibition of 123
